test.system: mouse TMEM16A mutant G510P (Mus musculus, UniProt Q8BHY3, G510P)
Construct: expressed in transfected cells; host or cells: HEK293T
Sequence (Q8BHY3 whole entry G510P): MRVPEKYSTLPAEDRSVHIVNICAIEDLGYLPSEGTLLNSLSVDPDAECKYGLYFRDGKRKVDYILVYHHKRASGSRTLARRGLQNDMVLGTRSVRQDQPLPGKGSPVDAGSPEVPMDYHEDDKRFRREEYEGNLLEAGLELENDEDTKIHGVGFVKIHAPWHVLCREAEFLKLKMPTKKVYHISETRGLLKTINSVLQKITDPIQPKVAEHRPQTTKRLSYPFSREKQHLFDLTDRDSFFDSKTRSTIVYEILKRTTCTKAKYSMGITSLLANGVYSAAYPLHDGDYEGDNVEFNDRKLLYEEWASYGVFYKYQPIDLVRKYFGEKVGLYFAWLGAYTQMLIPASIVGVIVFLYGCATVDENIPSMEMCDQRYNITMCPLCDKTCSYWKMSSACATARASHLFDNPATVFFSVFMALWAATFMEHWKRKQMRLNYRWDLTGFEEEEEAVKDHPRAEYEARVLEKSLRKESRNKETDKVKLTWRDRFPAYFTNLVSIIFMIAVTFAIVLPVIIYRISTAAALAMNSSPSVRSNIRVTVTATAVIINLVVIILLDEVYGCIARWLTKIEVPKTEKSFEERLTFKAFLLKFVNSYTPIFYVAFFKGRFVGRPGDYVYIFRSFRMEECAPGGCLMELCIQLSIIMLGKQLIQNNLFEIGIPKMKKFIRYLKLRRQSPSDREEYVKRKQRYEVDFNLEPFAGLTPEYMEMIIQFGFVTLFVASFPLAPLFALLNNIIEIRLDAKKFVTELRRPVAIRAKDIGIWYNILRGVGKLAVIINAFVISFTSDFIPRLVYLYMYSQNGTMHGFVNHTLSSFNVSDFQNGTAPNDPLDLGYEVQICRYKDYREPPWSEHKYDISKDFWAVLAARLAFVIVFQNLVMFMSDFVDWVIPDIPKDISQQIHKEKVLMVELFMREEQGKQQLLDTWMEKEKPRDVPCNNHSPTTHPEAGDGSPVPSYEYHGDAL
procedure.summary: Inside-out patch recording of 1PBC block, mutant G510P
Type: cell-based
settings: 80 mV; 15 µM Ca2+
measure: pIC50
Expect pIC50 as a plain number equal to -log10 of the molar concentration.

Ask: What value of pIC50 has been recorded for this entry: `N#Cc1c(C(F)(F)F)cc(O)n2c1nc1ccccc12`
Reply: 4.26

###

test.system: mouse TMEM16A mutant T518A (Mus musculus, UniProt Q8BHY3, T518A)
Construct: expressed in transfected cells; host or cells: HEK293T
Sequence (Q8BHY3 whole entry T518A): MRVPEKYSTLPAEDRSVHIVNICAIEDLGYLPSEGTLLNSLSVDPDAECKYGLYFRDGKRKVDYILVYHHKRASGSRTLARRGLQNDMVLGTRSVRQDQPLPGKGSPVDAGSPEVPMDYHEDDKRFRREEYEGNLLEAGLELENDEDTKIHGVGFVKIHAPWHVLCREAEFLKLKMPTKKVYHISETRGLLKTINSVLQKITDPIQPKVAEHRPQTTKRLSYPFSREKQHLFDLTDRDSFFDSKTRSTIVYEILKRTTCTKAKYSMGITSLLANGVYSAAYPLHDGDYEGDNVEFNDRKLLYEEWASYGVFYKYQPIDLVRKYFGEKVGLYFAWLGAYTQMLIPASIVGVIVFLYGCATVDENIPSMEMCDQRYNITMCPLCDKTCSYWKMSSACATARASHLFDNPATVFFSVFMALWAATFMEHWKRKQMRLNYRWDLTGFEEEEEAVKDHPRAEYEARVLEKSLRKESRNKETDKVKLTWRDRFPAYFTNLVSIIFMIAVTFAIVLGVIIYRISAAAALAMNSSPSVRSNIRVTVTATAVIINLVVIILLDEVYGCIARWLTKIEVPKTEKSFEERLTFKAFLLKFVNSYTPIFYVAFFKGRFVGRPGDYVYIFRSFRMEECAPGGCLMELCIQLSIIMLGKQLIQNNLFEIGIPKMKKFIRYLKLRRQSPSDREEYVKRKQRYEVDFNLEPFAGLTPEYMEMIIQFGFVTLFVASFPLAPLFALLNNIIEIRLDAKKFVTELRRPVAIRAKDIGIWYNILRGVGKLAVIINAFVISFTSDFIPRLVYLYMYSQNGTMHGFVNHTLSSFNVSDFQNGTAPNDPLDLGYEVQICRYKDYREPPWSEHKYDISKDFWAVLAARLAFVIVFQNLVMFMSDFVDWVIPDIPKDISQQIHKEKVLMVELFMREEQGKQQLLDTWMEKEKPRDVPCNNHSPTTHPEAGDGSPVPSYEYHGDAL
procedure.summary: Inside-out patch recording of 1PBC block, mutant T518A
Format: cell-based
settings: -40 mV; 2 µM Ca2+
measure: IC50 (µM)
Please respond with the number in µM and leave the unit unwritten.

Ask: What value of IC50 has been recorded for this entry: `N#Cc1c(C(F)(F)F)cc(O)n2c1nc1ccccc12`
Reply: 9.5

From: paper PMC9120017
